Biological target: Kv1.3 potassium channel (Homo sapiens, UniProt P22001)
Sequence (P22001 whole entry): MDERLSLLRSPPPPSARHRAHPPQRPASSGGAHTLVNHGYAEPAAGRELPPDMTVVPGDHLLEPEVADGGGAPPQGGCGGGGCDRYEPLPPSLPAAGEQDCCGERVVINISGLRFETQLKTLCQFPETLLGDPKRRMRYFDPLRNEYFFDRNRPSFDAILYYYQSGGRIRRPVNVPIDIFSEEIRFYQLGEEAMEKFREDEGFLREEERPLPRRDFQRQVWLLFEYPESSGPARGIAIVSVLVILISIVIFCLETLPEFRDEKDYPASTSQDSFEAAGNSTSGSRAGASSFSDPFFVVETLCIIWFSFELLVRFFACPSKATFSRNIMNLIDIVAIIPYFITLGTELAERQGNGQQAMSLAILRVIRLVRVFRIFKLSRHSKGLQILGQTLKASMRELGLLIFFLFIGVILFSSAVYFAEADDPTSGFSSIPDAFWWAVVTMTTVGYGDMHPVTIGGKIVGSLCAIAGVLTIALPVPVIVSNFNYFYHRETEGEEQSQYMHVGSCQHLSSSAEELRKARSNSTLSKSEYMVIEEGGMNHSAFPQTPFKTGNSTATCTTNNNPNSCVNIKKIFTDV
Assay: Kv1.3 potassium channel blocker activity, automated whole-cell patch clamp (Patchliner)
Settings: CHO-K1 cells stably expressing Kv1.3; whole cell current inhibition; read-out: Kv1.3_IC50
pIC50: −log10 of the molar value.
reported_endpoint: pIC50

See these solved cases before continuing.
- N[C@H](c1c(O)cc(Cl)c(Cl)c1F)C1CCN(C(=O)[C@H](O)CO)CC1: > 5.00
- N[C@@H](c1c(O)cc(Cl)c(Cl)c1F)C1CCN(C(=O)c2c[nH]c(=O)c(Cl)c2)CC1: > 6.30
- N[C@@H](c1cc(Cl)c(Cl)cc1O)C1CCN(C(=O)[C@@H]2CCC(=O)N2)CC1: > 5.00
- NC(c1cc(Cl)c(Cl)cc1O)C1CCN(CC2CC2)CC1 (centres unmarked): > 5.00

Each compound below has a recorded value; state its pIC50.
1. N[C@@H](c1cc(Cl)c(Cl)cc1O)C1CCN(C(=O)[C@@H]2COCCN2)CC1
2. N[C@@H](c1cc(Cl)c(Cl)cc1O)C1CCN(C(=O)C2(O)COC2)CC1
3. N[C@H](CO)C(=O)N1CCC([C@@H](N)c2cc(Cl)c(Cl)cc2O)CC1
4. CS(=O)(=O)NC(c1cc(Cl)c(Cl)cc1O)C1CCNCC1 (centres unmarked)

> 6.30
> 5.00
> 6.30
> 5.00

Sourced from patent US20230023559A1
